procedure_text: Thermal stability testing at 60° C. of ingredient and 1% premix (HPLC)
Format: physicochemical
recorded_conditions: Ingredient, Day 5
Experimental: Preparation of a sample of 1% premix of an ingredient: 1 g of an ingredient was respectively weighed out and evenly mixed with 99 g of corncob meal in a mixer to give a sample of 1% premix of an ingredient for testing. […] 25.0 mg of an ingredient was accurately weighed out and dissolved in an appropriate amount of methanol by ultrasonication. […] Between the concentration of a sample and the response value of HPLC peak area thereof, the linearity was adjusted and detected to give a standard curve. […]
observed_property: Residual amount of active ingredient (%)

molecule: CCC(=O)OC1=C(CCC(C)C)C(=O)C(CCC(C)C)(CCC(C)C)C(O)=C1C(=O)C(C)C [hexahydro-colupulone mono-propionate]
meas_value: 99.40
--
molecule: CC(C)CCC1=C(O)C(C(=O)C(C)C)=C(O)C(CCC(C)C)(CCC(C)C)C1=O [hexahydro-colupulone, reference compound]
meas_value: 99.76
--
molecule: CCCC(=O)OC1=C(CCC(C)C)C(=O)C(CCC(C)C)(CCC(C)C)C(O)=C1C(=O)C(C)C [hexahydro-colupulone mono-butyrate]
meas_value: 99.76
--
molecule: CC(=O)OC1=C(CCC(C)C)C(=O)C(CCC(C)C)(CCC(C)C)C(O)=C1C(=O)C(C)C [hexahydro-colupulone mono-acetate, Hexahydro-Colupulone Mono-Acetate]
meas_value: 99.69
